Reference source: patent US11345666B2

# tested target: full-length human RORγt (Homo sapiens (Human), UniProt P51449)
# Sequence (P51449 other isoform, or with tags, fused parts or gaps): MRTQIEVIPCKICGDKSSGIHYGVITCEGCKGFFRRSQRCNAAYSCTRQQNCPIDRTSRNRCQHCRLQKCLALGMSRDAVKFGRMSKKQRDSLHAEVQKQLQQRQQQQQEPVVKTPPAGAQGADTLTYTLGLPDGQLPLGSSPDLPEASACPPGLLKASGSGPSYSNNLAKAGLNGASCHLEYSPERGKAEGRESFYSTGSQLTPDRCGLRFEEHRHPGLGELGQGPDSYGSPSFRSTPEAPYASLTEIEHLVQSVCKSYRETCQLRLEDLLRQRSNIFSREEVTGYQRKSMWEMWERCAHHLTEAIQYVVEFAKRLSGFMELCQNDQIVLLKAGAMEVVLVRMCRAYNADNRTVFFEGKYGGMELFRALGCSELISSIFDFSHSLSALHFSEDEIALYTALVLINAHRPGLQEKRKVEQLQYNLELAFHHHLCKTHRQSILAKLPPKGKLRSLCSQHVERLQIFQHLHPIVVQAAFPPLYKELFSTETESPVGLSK
# protocol notes: RORγt (full-length human) reporter assay, conditions A or B
# Type: cell-based
# assay setup: 1 μM compound concentration (***); read-out: RORγt (FL) Reporter Assay A or B, % inhibition
Readings of inhibition at 1 µM for the listed molecules
Numeric only. Scale: %

| molecule | result unit | inhibition at 1 µM |
| --- | --- | --- |
| CCc1nc(C(=O)NC[C@H]2CC[C@H](S(C)(=O)=O)CC2)c(Cl)n1-c1ncc(C[C@@H](C)C(F)(F)F)cc1OC(F)F (single isomer, unassigned) [Example 78] | % | 94 |

// query I would be grateful if you could share the reported inhibition at 1 µM for Cc1nc(C(=O)NC[C@]2(O)CC[C@@H](S(C)(=O)=O)CC2)c(C#N)n1-c1ccc(CC(C)(C)C(F)(F)F)cc1OC(F)F [Example 54] .
// result 83

// query I would be grateful if you could share the reported inhibition at 1 µM for CCc1nc(C(=O)NC[C@H]2CC[C@H](S(C)(=O)=O)CC2)c(Cl)n1-c1ncc(CC(C)(C)C(F)(F)F)cc1OC(F)F [Example 2] .
// result 84

// query I would be grateful if you could share the reported inhibition at 1 µM for CCc1nc(C(=O)NC[C@H]2CC[C@H](S(C)(=O)=O)CC2)c(C)n1-c1ncc(C[C@H](C)C(F)(F)F)cc1OC(F)F (single isomer, unassigned) [Example 73] .
// result 80

###

# tested target: full-length human RORγt (Homo sapiens (Human))
# protocol notes: RORγt (full-length human) reporter assay, conditions A or B
# assay setup: HEK293T cells; read-out: RORγt (FL) Reporter Assay A or B, IC50
Note that class boundaries on IC50 are class 0: < 30 nM; class 1: ≥ 30 nM and < 90 nM; class 2: ≥ 90 nM

| compound | tested target | label value |
| --- | --- | --- |
| CCc1nc(C(=O)NC[C@]2(O)CC[C@@H](S(C)(=O)=O)CC2)c(Cl)n1-c1ccc(CCC(F)(F)F)cc1F [Example 23] | full-length human RORγt (Homo sapiens (Human)) | class 1 |
| CCc1nc(C(=O)NC[C@]2(O)CC[C@@H](S(C)(=O)=O)CC2)c(Cl)n1-c1ccc(CC(C)C)cc1OC (single isomer, unassigned) [Example 92] | full-length human RORγt (Homo sapiens (Human)) | class 0 |
| CCc1nc(C(=O)NC[C@H]2CC[C@H](S(C)(=O)=O)CC2)c(C#N)n1-c1ncc(CCC(F)(F)F)cc1OC [Example 119] | full-length human RORγt (Homo sapiens (Human)) | class 2 |
| CCc1nc(C(=O)NC[C@H]2CC[C@H](S(C)(=O)=O)CC2)c(C)n1-c1ccc(CC(C)C(F)(F)F)cc1OC (single isomer, unassigned) [Example 7] | full-length human RORγt (Homo sapiens (Human)) | class 0 |
| CCc1nc(C(=O)NC[C@]2(O)CC[C@@H](S(C)(=O)=O)CC2)c(F)n1-c1ccc(CC(C)(C)C(F)(F)F)cc1OC(F)F [Example 35] | full-length human RORγt (Homo sapiens (Human)) | class 0 |
| CCc1nc(C(=O)NC[C@]2(O)CC[C@@H](S(C)(=O)=O)CC2)c(C)n1-c1ccc(CC(C)(C)C(F)(F)F)c(OC)c1 [Example 45] | full-length human RORγt (Homo sapiens (Human)) | class 0 |
| Cc1nc(C(=O)NC[C@H]2CC[C@H](S(C)(=O)=O)CC2)cn1-c1ccc(CC(C)(C)C(F)(F)F)cc1OC(F)F [Example 131] | full-length human RORγt (Homo sapiens (Human)) | class 2 |
| CCc1nc(C(=O)NC[C@H]2CC[C@H](S(C)(=O)=O)CC2)c(Cl)n1-c1ncc(C[C@H](C)C(F)(F)F)cc1OC(F)F (single isomer, unassigned) [Example 72] | full-length human RORγt (Homo sapiens (Human)) | class 1 |
| CCc1nc(C(=O)NC[C@]2(C#N)CC[C@@H](S(C)(=O)=O)CC2)c(C#N)n1-c1ncc(CC(C)(C)C(F)(F)F)cc1OC [Example 124] | full-length human RORγt (Homo sapiens (Human)) | class 1 |
| CCc1nc(C(=O)NC[C@H]2CC[C@H](S(C)(=O)=O)CC2)c(C)n1-c1ncc(C[C@@H](C)C(F)(F)F)cc1OC(F)F (single isomer, unassigned) [Example 80] | full-length human RORγt (Homo sapiens (Human)) | class 1 |

Next, consider the following compound.
// query Class for CCc1nc(C(=O)NC[C@]2(O)CC[C@@H](S(C)(=O)=O)CC2)c(C#N)n1-c1cnc(CCC(F)(F)F)cc1OC [Example 118] ?
// result class 2

###

Readings of pIC50 for the listed compounds
# tested target: full-length human RORγt (Homo sapiens (Human))
# protocol notes: RORγt (full-length human) reporter assay, conditions A or B
# Format: cell-based
# assay setup: HEK293T cells; read-out: RORγt (FL) Reporter Assay A or B, IC50
# Description: RORγt (Full-Length Human) Reporter Assay: Cells used in this assay were transiently co-transfected with three different plasmids, one expressing the GAL4-DNA binding domain (DBD)-RORγt fusion protein under control of a CMV promoter (NH2-Gal4-DBD:RORC—COOH in pCMV-BD, Stratagene #211342), and two reporter plasmids—the firefly luciferase reporter under control of a GAL4 promoter (pFR-Luc 2×GAL4) and Renilla luciferase reporter under control of CMV promoter (pRL-CMV, Promega #E2261). […]
# log scale: pIC50 equals minus log10 of the concentration in mol/L

Consider the following illustrative entries.
| compound | measurement type | quantitative result |
| --- | --- | --- |
| Cc1nc(C(=O)NC[C@H]2CC[C@H](S(C)(=O)=O)C[C@@H]2O)c(C#N)n1-c1ccc(CC(C)(C)C(F)(F)F)cc1OC(F)F (single isomer, unassigned) | pIC50 | 7.20 |
| CCc1nc(C(=O)NC[C@H]2CC[C@H](S(C)(=O)=O)CC2)c(Cl)n1-c1ccc(CC(C)C)cc1OC | pIC50 | 7.80 |
| CCc1nc(C(=O)NC[C@H]2CC[C@H](S(C)(=O)=O)CC2)c(C)n1-c1ccc(CC(C(F)(F)F)C(F)(F)F)cc1F | pIC50 | 8.74 |
| CCc1nc(C(=O)NC[C@]2(O)CC[C@@H](S(C)(=O)=O)CC2)c(Cl)n1-c1c(F)cc(CC(C)C)cc1F | pIC50 | 6.92 |
| CCc1nc(C(=O)NC[C@]2(O)CC[C@@H](S(C)(=O)=O)CC2)c(C#N)n1-c1ccc(CCC(F)(F)F)cc1F | pIC50 | 5.92 |
| CCc1nc(C(=O)NC[C@]2(O)CC[C@@H](S(C)(=O)=O)CC2)cn1-c1c(F)cc(CC(C)C(F)(F)F)cc1F (stereo partly drawn) | pIC50 | 5.70 |
| CCc1nc(C(=O)NC[C@H]2CC[C@H](S(C)(=O)=O)CC2)c(C(N)=O)n1-c1ccc(CCC(F)(F)F)cc1F | pIC50 | 6.31 |
| CCc1nc(C(=O)NC[C@]2(O)CC[C@@H](S(C)(=O)=O)CC2)cn1-c1ccc(C[C@H](C)C(F)(F)F)cc1OC (single isomer, unassigned) | pIC50 | 6.44 |
| CCc1nc(C(=O)NC[C@H]2CC[C@H](S(C)(=O)=O)CC2)cn1-c1ccc(C[C@@H](C)C(F)(F)F)cc1OC (single isomer, unassigned) | pIC50 | 6.64 |
| CCc1nc(C(=O)NC[C@H]2CC[C@H](S(C)(=O)=O)CC2)c(Cl)n1-c1ccc(N[C@H](C)C(F)(F)F)cc1OC | pIC50 | 7.44 |

// query Give pIC50 (full-length human RORγt (Homo sapiens (Human))) of the following compound: CCc1nc(C(=O)NC[C@H]2CC[C@H](S(N)(=O)=O)CC2)c(Cl)n1-c1ncc(CC(C)(C)C(F)(F)F)cc1OC(F)F
// result 7.41

// query Give pIC50 (full-length human RORγt (Homo sapiens (Human))) of the following compound: CCc1nc(C(=O)NC[C@H]2CC[C@H](S(C)(=O)=O)CC2)cn1-c1c(F)cc(CC(C)C)cc1F
// result 6.43

###

# tested target: full-length human RORγt (Homo sapiens (Human))
# protocol notes: RORγt (full-length human) reporter assay, conditions A or B
# Assay type: cell-based
# assay setup: 2 μM compound concentration (**); read-out: RORγt (FL) Reporter Assay A or B, % inhibition
measurement type: inhibition at 2 µM (%)
Numeric only. Scale: %

Consider the following illustrative entries.
| compound | tested target | inhibition at 2 µM [%] |
| --- | --- | --- |
| CCc1nc(C(=O)NC[C@H]2CC[C@@H](S(C)(=O)=O)CC2)c(Cl)n1-c1ccc(N[C@H](C)C(F)(F)F)cc1OC | full-length human RORγt (Homo sapiens (Human)) | 87 |
| CCc1nc(C(=O)NC[C@H]2CC[C@H](S(C)(=O)=O)CC2)c(F)n1-c1ccc(CC(C)(C)C(F)(F)F)cc1OC(F)F | full-length human RORγt (Homo sapiens (Human)) | 98 |
| CCc1nc(C(=O)NC[C@H]2CC[C@H](S(C)(=O)=O)CC2)c(C#N)n1-c1ccc(CC(C)(C)C(F)(F)F)cc1OC(F)(F)F | full-length human RORγt (Homo sapiens (Human)) | 88 |
| CCc1nc(C(=O)NC[C@H]2CC[C@H](S(C)(=O)=O)CC2)c(Cl)n1-c1ccc(N[C@H](C)C(F)(F)F)cc1OC | full-length human RORγt (Homo sapiens (Human)) | 101 |
| CCc1nc(C(=O)NC[C@H]2CC[C@H](S(C)(=O)=O)CC2)c(C#N)n1-c1ccc(CC(C)C(F)(F)F)cc1OC (some centres unmarked) | full-length human RORγt (Homo sapiens (Human)) | 103 |

// query I would be grateful if you could share the reported inhibition at 2 µM for COc1cc(CC(C)(C)C(F)(F)F)ccc1-n1cc(C(=O)NC[C@]2(O)CC[C@@H](S(C)(=O)=O)CC2)nc1C .
// result 73

// query I would be grateful if you could share the reported inhibition at 2 µM for CCc1nc(C(=O)NC[C@]2(O)CC[C@@H](S(C)(=O)=O)CC2)cn1-c1ccc(C[C@H](C)C(F)(F)F)cc1OC (single isomer, unassigned) .
// result 80

// query I would be grateful if you could share the reported inhibition at 2 µM for CCc1nc(C(=O)NC[C@]2(O)CC[C@@H](S(C)(=O)=O)CC2)c(C(N)=O)n1-c1ccc(CC(C)(C)C(F)(F)F)cc1OC(F)(F)F .
// result 89

// query I would be grateful if you could share the reported inhibition at 2 µM for C#Cc1c(C(=O)NC[C@]2(O)CC[C@@H](S(C)(=O)=O)CC2)nc(CC)n1-c1ccc(CC(C)(C)C(F)(F)F)cc1OC(F)F .
// result 105

// query I would be grateful if you could share the reported inhibition at 2 µM for CCc1nc(C(=O)NC[C@H]2CC[C@H](S(C)(=O)=O)CC2)cn1-c1c(F)cc(CC(C)C)cc1F .
// result 44
